system: SARS-CoV-2 (WIV02 isolate) prefusion stabilized spike trimer protein (UniProt P0DTC2 14-1213)
test-description: ELISA
# IC50 listing for each entry below
Please reply with the bare figure in nM and do not write the unit itself.

Solved entries (count: 2):
Prompt: # get_value(readout='IC50', item= 9-K4-A (antibody, V domains shown) VH: QAYLQQSGAELVRPGASVKMSCKASGYTFPNYSFHWVKQTPRQGLEWIGAIYPGNDDTSYNQRFKGKATLTVDKSSSTAYMQLSSLTSEDSAVYFCARDYSNYPFDCWGQGTTLTVSS VL: DIVLTQSPASLAVSLGQRATISCRASKSVSTSGYSYMHWYQQKPGQPPKLLIYLASNLESGVPARFSGSGSGTDFTLNIHPVEEEDAATYYCQHSRELPPTFGGGTKLEIK )
Response: 72.6

Prompt: # get_value(readout='IC50', item= 8-H3-A (antibody, V domains shown) VH: EVQLVESGGGLVQPKGSLKLSCAASGFTFNTYAMHWVRQAPGKGLEWVARIRSKSSNYATYYADSVKDRFTISRDDSQSMLYLQMNNLKTEDTAMYYCVRDHDYYGSSYWFTYWGQGTLVTVSA VL: DVVMTQTPLSLPVSLGDQASISCRSSQSLVHDNGNTYLHWFLQKPGQSPKLLIYKVSNRFSGVPDRFSGSGSGTDFTLKISRVETEDLGVYFCSQSTHVPWTFGGGTKLEIK )
Response: 19.4

Moving on to another binder below.
Prompt: # get_value(readout='IC50', item= 9-F6-A (antibody, V domains shown) VH: EVQLQQSGPELVKPGASVKMSCKASGYTFTSYIMHWVKQKPGQGLEWIGYILPYNDGTKYNEKFKGKATLTSDKSSSTAYMELRSLTSEDSAVYYCARWGYSNFLDSWGQGTTLTVSS VL: DIQMTQTTSSLSASLGDRVTISCRASQDINNYLNWYQQKPDGTVKLLIYYTSRLHSGVPSRFSGSGSGTDYSLTIRNLEQEDIATYFCQQGNTLPPTFGGGTKLEIK )
Response: 16.7
